# Test system: Staphylococcus aureus
# test: In vitro antimicrobial activity against Staphylococcus aureus X1
# Type: functional
Recorded MIC by entry
property_measured: MIC (µg/mL)

CC[C@H]1OC(=O)C[C@@H](O)[C@H](C)[C@@H](O[C@@H]2O[C@H](C)[C@@H](O)[C@H](N(C)C)[C@H]2O)[C@@H](CCN2CCCCCCC2)C[C@@H](C)C(=O)/C=C/C(C)=C/[C@@H]1CO[C@@H]1O[C@H](C)[C@@H](O)[C@@H](OC)[C@H]1OC 0.5
CC[C@H]1OC(=O)C[C@@H](O)[C@H](C)[C@@H](O[C@@H]2O[C@H](C)[C@@H](O[C@H]3C[C@@](C)(O)[C@@H](O)[C@H](C)O3)[C@H](N(C)C)[C@H]2O)[C@@H](CCOc2ccccc2)C[C@@H](C)C(=O)/C=C/C(C)=C/[C@@H]1CO[C@@H]1O[C@H](C)[C@@H](O)[C@@H](O)[C@H]1OC 2
CC[C@H]1OC(=O)C[C@@H](O)[C@H](C)[C@@H](O[C@@H]2O[C@H](C)[C@@H](O)[C@H](N(C)C)[C@H]2O)[C@@H](CCCl)C[C@@H](C)C(=O)/C=C/C(C)=C/[C@@H]1CO[C@@H]1O[C@H](C)[C@@H](O)[C@@H](OC)[C@H]1OC 0.25
CC[C@H]1OC(=O)C[C@@H](O)[C@H](C)[C@@H](O[C@@H]2O[C@H](C)[C@@H](O[C@H]3C[C@@](C)(O)[C@@H](O)[C@H](C)O3)[C@H](N(C)C)[C@H]2O)[C@@H](CC=O)C[C@@H](C)C(=O)/C=C/C(C)=C/[C@@H]1CO[C@@H]1O[C@H](C)[C@@H](O)[C@@H](O)[C@H]1OC 0.5
CC[C@H]1OC(=O)C[C@@H](O)[C@H](C)[C@@H](O[C@@H]2O[C@H](C)[C@@H](O[C@H]3C[C@@](C)(O)[C@@H](O)[C@H](C)O3)[C@H](N(C)C)[C@H]2O)[C@@H](CCOc2ccc(-c3ccccc3)cc2)C[C@@H](C)C(=O)/C=C/C(C)=C/[C@@H]1CO[C@@H]1O[C@H](C)[C@@H](O)[C@@H](OC)[C@H]1OC 2
CC[C@H]1OC(=O)C[C@@H](O)[C@H](C)[C@@H](O[C@@H]2O[C@H](C)[C@@H](O[C@H]3C[C@@](C)(O)[C@@H](O)[C@H](C)O3)[C@H](N(C)C)[C@H]2O)[C@@H](CC=O)C[C@@H](C)C(=O)/C=C/C(C)=C/[C@@H]1C 0.5

* * *

Recorded MIC by entry
# System: Staphylococcus epidermidis
# test: In vitro antimicrobial activity against Staphylococcus epidermidis EPI1
# Format: functional
property_measured: MIC (µg/mL)

CC[C@H]1OC(=O)C[C@@H](O)[C@H](C)[C@@H](O[C@@H]2O[C@H](C)[C@@H](O)[C@H](N(C)C)[C@H]2O)[C@@H](CCOc2ncnc3ccccc23)C[C@@H](C)C(=O)/C=C/C(C)=C/[C@@H]1CO[C@@H]1O[C@H](C)[C@@H](O)[C@@H](OC)[C@H]1OC 0.25
CC[C@H]1OC(=O)C[C@@H](O)[C@H](C)[C@@H](O[C@@H]2O[C@H](C)[C@@H](O[C@H]3C[C@@](C)(O)[C@@H](O)[C@H](C)O3)[C@H](N(C)C)[C@H]2O)[C@@H](CCSc2ccccc2)C[C@@H](C)C(=O)/C=C/C(C)=C/[C@@H]1CO[C@@H]1O[C@H](C)[C@@H](O)[C@@H](OC)[C@H]1OC 2
CCOC(=O)NN(CC[C@H]1C[C@@H](C)C(=O)/C=C/C(C)=C/[C@H](CO[C@@H]2O[C@H](C)[C@@H](O)[C@@H](OC)[C@H]2OC)[C@@H](CC)OC(=O)C[C@@H](O)[C@H](C)[C@H]1O[C@@H]1O[C@H](C)[C@@H](O[C@H]2C[C@@](C)(O)[C@@H](O)[C@H](C)O2)[C@H](N(C)C)[C@H]1O)C(=O)OCC 4
CC[C@H]1OC(=O)C[C@@H](O)[C@H](C)[C@@H](O[C@@H]2O[C@H](C)[C@@H](O)[C@H](N(C)C)[C@H]2O)[C@@H](CCI)C[C@@H](C)C(=O)/C=C/C(C)=C/[C@@H]1CO[C@@H]1O[C@H](C)[C@@H](O)[C@@H](O)[C@H]1OC 0.5
CC[C@H]1OC(=O)C[C@@H](O)[C@H](C)[C@@H](O[C@@H]2O[C@H](C)[C@@H](O[C@H]3C[C@@](C)(O)[C@@H](O)[C@H](C)O3)[C@H](N(C)C)[C@H]2O)[C@@H](CCOc2ncnc3ccccc23)C[C@@H](C)C(=O)/C=C/C(C)=C/[C@@H]1CO[C@@H]1O[C@H](C)[C@@H](O)[C@@H](OC)[C@H]1OC 1
CC[C@H]1OC(=O)C[C@@H](O)[C@H](C)[C@@H](O[C@@H]2O[C@H](C)[C@@H](O[C@H]3C[C@@](C)(O)[C@@H](O)[C@H](C)O3)[C@H](N(C)C)[C@H]2O)[C@@H](CCNCCc2ccccc2)C[C@@H](C)C(=O)/C=C/C(C)=C/[C@@H]1C 4
CC[C@H]1OC(=O)C[C@@H](O)[C@H](C)[C@@H](O[C@@H]2O[C@H](C)[C@@H](O[C@H]3C[C@@](C)(O)[C@@H](O)[C@H](C)O3)[C@H](N(C)C)[C@H]2O)[C@@H](CCOc2ccccc2)C[C@@H](C)C(=O)/C=C/C(C)=C/[C@@H]1CO[C@@H]1O[C@H](C)[C@@H](O)[C@@H](OC)[C@H]1OC 1

* * *

# Tested on: Haemophilus influenzae
# test: In vitro antimicrobial activity against Haemophilus influenzae.
# Format: functional
Recorded MIC by entry
property_measured: MIC

CC[C@H]1OC(=O)C[C@@H](O)[C@H](C)[C@@H](O[C@@H]2O[C@H](C)[C@@H](O)[C@H](N(C)C)[C@H]2O)[C@@H](CC=O)C[C@@H](C)C(=O)/C=C/C(C)=C/[C@@H]1CO 2 µg/mL
CC[C@H]1OC(=O)C[C@@H](O)[C@H](C)[C@@H](O[C@@H]2O[C@H](C)[C@@H](O)[C@H](N(C)C)[C@H]2O)[C@@H](CC=O)C[C@@H](C)C(=O)/C=C/C(C)=C/[C@@H]1CO[C@@H]1O[C@H](C)[C@@H](O)[C@@H](OC)[C@H]1OC 4 µg/mL
CC[C@H]1OC(=O)C[C@@H](O)[C@H](C)[C@@H](O[C@@H]2O[C@H](C)[C@@H](O[C@H]3C[C@@](C)(O)[C@@H](O)[C@H](C)O3)[C@H](N(C)C)[C@H]2O)[C@@H](CC=O)C[C@@H](C)C(=O)/C=C/C(C)=C/[C@@H]1CO[C@@H]1O[C@H](C)[C@@H](O)[C@@H](OC)[C@H]1OC 16 µg/mL
CC[C@H]1OC(=O)C[C@@H](O)[C@H](C)[C@@H](O[C@@H]2O[C@H](C)[C@@H](O)[C@H](N(C)C)[C@H]2O)[C@@H](CCOc2ncnc3ccccc23)C[C@@H](C)C(=O)/C=C/C(C)=C/[C@@H]1CO[C@@H]1O[C@H](C)[C@@H](O)[C@@H](OC)[C@H]1OC 16 µg/mL

* * *

Recorded MIC by entry
# System: Staphylococcus epidermidis
# test: In vitro antimicrobial activity against Staphylococcus epidermidis EPI1
# Assay type: functional
property_measured: MIC (mg/L)

CC[C@H]1OC(=O)C[C@@H](O)[C@H](C)[C@@H](O[C@@H]2O[C@H](C)[C@@H](O)[C@H](N(C)C)[C@H]2O)[C@@H](CCOc2cccc(Oc3ccccc3)c2)C[C@@H](C)C(=O)/C=C/C(C)=C/[C@@H]1CO[C@@H]1O[C@H](C)[C@@H](O)[C@@H](OC)[C@H]1OC 0.5
CC[C@H]1OC(=O)C[C@@H](O)[C@H](C)[C@@H](O[C@@H]2O[C@H](C)[C@@H](O[C@H]3C[C@@](C)(O)[C@@H](O)[C@H](C)O3)[C@H](N(C)C)[C@H]2O)[C@@H](CCCl)C[C@@H](C)C(=O)/C=C/C(C)=C/[C@@H]1CO[C@@H]1O[C@H](C)[C@@H](O)[C@@H](OC)[C@H]1OC 1
CC[C@H]1OC(=O)C[C@@H](O)[C@H](C)[C@@H](O[C@@H]2O[C@H](C)[C@@H](O[C@H]3C[C@@](C)(O)[C@@H](O)[C@H](C)O3)[C@H](N(C)C)[C@H]2O)[C@@H](CCOc2cc(Cl)cc(Cl)c2)C[C@@H](C)C(=O)/C=C/C(C)=C/[C@@H]1CO[C@@H]1O[C@H](C)[C@@H](O)[C@@H](OC)[C@H]1OC 2
CC[C@H]1OC(=O)C[C@@H](O)[C@H](C)[C@@H](O[C@@H]2O[C@H](C)[C@@H](O[C@H]3C[C@@](C)(O)[C@@H](O)[C@H](C)O3)[C@H](N(C)C)[C@H]2O)[C@@H](CCOc2ccc([N+](=O)[O-])cc2)C[C@@H](C)C(=O)/C=C/C(C)=C/[C@@H]1CO[C@@H]1O[C@H](C)[C@@H](O)[C@@H](OC)[C@H]1OC 1
CC[C@H]1OC(=O)C[C@@H](O)[C@H](C)[C@@H](O[C@@H]2O[C@H](C)[C@@H](O[C@H]3C[C@@](C)(O)[C@@H](O)[C@H](C)O3)[C@H](N(C)C)[C@H]2O)[C@@H](CCNc2ccc(OC(C)=O)cc2)C[C@@H](C)C(=O)/C=C/C(C)=C/[C@@H]1CO[C@@H]1O[C@H](C)[C@@H](O)[C@@H](OC)[C@H]1OC 0.5
CC[C@H]1OC(=O)C[C@@H](O)[C@H](C)[C@@H](O[C@@H]2O[C@H](C)[C@@H](O[C@H]3C[C@@](C)(O)[C@@H](O)[C@H](C)O3)[C@H](N(C)C)[C@H]2O)[C@@H](CCSc2nnnn2C)C[C@@H](C)C(=O)/C=C/C(C)=C/[C@@H]1CO[C@@H]1O[C@H](C)[C@@H](O)[C@@H](OC)[C@H]1OC 1
CC[C@H]1C[C@@H](C)C(=O)/C=C/C(C)=C/[C@H](C)[C@@H](CC)OC(=O)C[C@@H](O)[C@H](C)[C@H]1O[C@@H]1O[C@H](C)[C@@H](O[C@H]2C[C@@](C)(O)[C@@H](O)[C@H](C)O2)[C@H](N(C)C)[C@H]1O 64
